Provenance of the data: the kinase profiling compilation of Christmann-Franck et al. (2016)

System Under Test: DMPK (human)
Protocol Summary: KINOMEscan competition binding
Reported Conditions: compound 10.0 µM
Measured Attribute: kinase still bound, per cent of control (%)
Give the value in % but do not write % after it.

Need kinase still bound, per cent of control, item `CS(=O)(=O)Nc1ccc(-c2cncc(/C=C3\SC(=N)NC3=O)c2)cc1`
22

Another: `COc1cc(N2CCN(C)CC2)ccc1Nc1ncc2c(n1)N(C)c1ccccc1N(C)C2=O`
100

Same again, this time with `COc1cc(N2CCN(CCO)CC2)ccc1Nc1ncc2c(n1)N(C1CCCC1)CCC(=O)N2C`
0

Now this one: `CN1C(=O)c2ccccc2N(C)c2nc(Nc3ccc(N4CCC(O)CC4)cc3)ncc21`
100

Can you handle `CS(=O)(=O)Nc1ccc(-c2cc(/C=C3\SC(=N)NC3=O)c[nH]c2=O)cc1` next?
6.4

Same again, this time with `COc1cc(N2CCN(C)CC2)ccc1Nc1ncc2c(n1)Nc1ccccc1NC2=O`
91

Let us now turn to `N=C1NC(=O)/C(=C/c2ccc(-c3ccc(C(N)=O)cc3O)o2)S1`
14

Same lookup for `COc1cc(N2CCN(C)CC2)ccc1Nc1ncc2c(n1)N(C)c1sccc1C(=O)N2C` , please.
100

Can you check `O=C1NC(=O)/C(=C/c2c[nH]c(=O)c(-c3ccc(N4CCNCC4)nc3)c2)S1` next?
3.6

Check `Nc1cccc(-c2cc(/C=C3\SC(=O)NC3=O)c[nH]c2=O)c1` too.
27
